- Assayed system: T1, recombinant human CTLA4-Fc (Sino Biological, 11159-H03H) (human, UniProt P16410 36-162)
- T1 construct: bought; also called human CTLA4 fused with human FC fragment
- T1 sequence (looked up): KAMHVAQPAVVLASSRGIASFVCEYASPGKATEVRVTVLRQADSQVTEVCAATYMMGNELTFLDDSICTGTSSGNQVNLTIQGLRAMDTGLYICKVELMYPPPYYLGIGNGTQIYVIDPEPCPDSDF
- Assay: ELISA; EC50 over EC50 of TY21580
Recorded endpoint: Masking efficiency (fold)
Answers are plain numbers, in fold.

Example results:
Challenge: Which Masking efficiency is listed for TY22563 (antibody, IgG1, V domains shown) VH: EVQLVESGGGLVQPGGSLRLSCAASGYSISSGYHWSWIRQAPGKGLEWLARIDWDDDKYYSTSLKSRLTISRDNSKNTLYLQLNSLRAEDTAVYYCARSYVYFDYWGQGTLVTVSS VL: EVGSYYSAYPACDSHYPYCQSSGRSAGGGGSPLGLAGSGGSDIQLTQSPSSLSASVGDRVTITCRASQSVRGRFLAWYQQKPGKAPKLLIYDASNRATGIPSRFSGSGSGTDFTLTISSLQPEDFATYYCQQSSSWPPTFGQGTKVEIKR ?
Response given: 144

Challenge: How about TY22404 (antibody, IgG1, V domains shown, also called B13197 (peptide name)) VH: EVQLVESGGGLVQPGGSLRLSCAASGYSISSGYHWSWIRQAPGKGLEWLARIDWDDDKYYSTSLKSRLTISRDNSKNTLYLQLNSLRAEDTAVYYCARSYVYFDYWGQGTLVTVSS VL: EVGSYPNPSSDCVPYYYACAYSGRSAGGGGSPLGLAGSGGSDIQLTQSPSSLSASVGDRVTITCRASQSVRGRFLAWYQQKPGKAPKLLIYDASNRATGIPSRFSGSGSGTDFTLTISSLQPEDFATYYCQQSSSWPPTFGQGTKVEIKR ?
Response given: 308

Challenge: How about TY22566 (antibody, IgG1, V domains shown) VH: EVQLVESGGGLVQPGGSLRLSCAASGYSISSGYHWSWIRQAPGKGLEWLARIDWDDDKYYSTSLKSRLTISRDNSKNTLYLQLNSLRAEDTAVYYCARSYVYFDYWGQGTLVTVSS VL: EVGSYPNPASDCVPYYYACAYSGRSAGGGGSPLGLAGSGGSDIQLTQSPSSLSASVGDRVTITCRASQSVRGRFLAWYQQKPGKAPKLLIYDASNRATGIPSRFSGSGSGTDFTLTISSLQPEDFATYYCQQSSSWPPTFGQGTKVEIKR ?
Response given: 489

Continuing:
Challenge: Which Masking efficiency is listed for TY22775 (antibody, V domains shown) VH: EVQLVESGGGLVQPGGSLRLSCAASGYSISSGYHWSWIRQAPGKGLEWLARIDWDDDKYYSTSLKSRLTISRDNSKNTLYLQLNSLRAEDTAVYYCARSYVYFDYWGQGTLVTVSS VL: EVGHSDCDAFYPYCDSSGRSAGGGGTPLGLAGSGGSDIQLTQSPSSLSASVGDRVTITCRASQSVRGRFLAWYQQKPGKAPKLLIYDASNRATGIPSRFSGSGSGTDFTLTISSLQPEDFATYYCQQSSSWPPTFGQGTKVEIKR ?
Response given: 168
